Tested On: T1, human sclerostin, mature form (signal peptide removed) (human, UniProt Q9BQB4 24-213)
T1 construct: 190 amino acid glycoprotein; also called SOST; recombinant human sclerostin
T1 sequence: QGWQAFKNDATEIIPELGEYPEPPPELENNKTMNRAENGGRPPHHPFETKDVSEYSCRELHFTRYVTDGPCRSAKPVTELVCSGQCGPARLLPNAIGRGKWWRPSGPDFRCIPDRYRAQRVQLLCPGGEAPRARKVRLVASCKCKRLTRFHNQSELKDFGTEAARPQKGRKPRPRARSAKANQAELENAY
Assay: Biacore cross-blocking on immobilised human sclerostin; RU of 1:1 mixture, competitor Ab-3
Experimental: The antibodies to be tested were diluted to a concentration of 200 ug/ml in HBS-EP buffer (being 10 mM HEPES pH 7.4, 150 mM NaCl, 3 mM EDTA, 0.005% (v/v) Surfactant P20) and then mixed in a one to one molar ratio (on a binding site basis) to generate the test mixture. […] 20 μL of the test mixture was passed over the sclerostin-coated chip at a flow rate of 10 μL/min and the amount of binding recorded. […]
Measured Quantity: binding (RU)
Provide the reading as a plain figure in RU.

// query Supply reported binding (RU) belonging to this binder: Antibody 13 (antibody, mouse IgG1, kappa, V domains shown, … = EVQ); also called Ab-13) VH: EVQLQQSGPELVKPGASVKMSCKASGYTFTDYYMNWVKQSHGESLEWIGDINPYNDDTTYNHKFKGKATLTVDKSSNTAYMQLNSLTSEDSAVYYCARETAVITTNAMDYWGQGTSVTVSS VL: QIVLTQSPAIMSASPGEKVTMTCRASSSVTSSYLNWYQQKPGSSPKLWIYSTSNLASGVPARFSGSGSGTSYSLTISSVEAEDAATYYCQQYDFFPSTFGGGTKLEIKR
// result 432
